System: RAW-Dual (murine macrophage reporter line)
assay info: viability score (confluency relative to resting cells, overnight) (fraction); higher = more viable, active = viable (0.7 or more)
condition details: modulator concentration 10 µM
Please go through the items and note down their viability score.
The answer should be written as a number, with no unit following it.

For reference, reported viability score for NC(=O)c1cccnc1 stands at 1

The recorded viability score for COc1ccc(C=CC(=O)Nc2sc(C(=O)OC(C)C)c(C)c2C(N)=O)cc1 is 1

Per the records, this molecule ( CCOc1ccc(C=c2sc3nc4ccccc4n3c2=O)cc1Cl ) has viability score equal to 0.998

Recorded result, CCOc1ccc2nc(SC3CC(=O)N(c4cccc(Cl)c4)C3=O)sc2c1 (stereo not drawn) , viability score: 1.01

Given item NC(=O)c1cc2ccccc2oc1=NCc1ccccc1 , the value recorded as its viability score is 1.01

Reported viability score of Cc1cc(OCC(O)Cn2cnc3ccccc32)ccc1Cl (stereo not drawn) : 0.906

For record COS(=O)(=O)[O-].C[N+]1(C)CCC(=C(c2ccccc2)c2ccccc2)CC1 the listed viability score is 0.958

Looking up Brc1ccc2ncnc(NCc3cccnc3)c2c1 , I found its viability score recorded as 1

The reported value for O=[N+]([O-])c1ccc(C=CC=Nc2ccc(-c3nc4ccccc4s3)c(O)c2)cc1 in terms of viability score is 0.994

The molecule listed as COc1ccc(CNC2CCCc3ccccc32)c(OC)c1 (stereo not drawn) shows viability score equal to 0.94

get_value(item= CC(C)CN(C[C@@H](O)[C@H](Cc1ccccc1)NC(=O)O[C@H]1CO[C@H]2OCC[C@H]21)S(=O)(=O)c1ccc(N)cc1 , readout=viability score) returns 0.997

// COc1cc2nc(N(C)CCCNC(=O)C3CCCO3)nc(N)c2cc1OC (stereo not drawn) : viability score value = 0.996

Documented viability score of CC(C(=O)N1CCN(S(=O)(=O)C2CC2)CC1)n1nc2c(cc1=O)CCC2 (stereo not drawn) : 1.01
